Target of assay: human PAH with the R408W mutation (A375 R408W cells) (Homo sapiens, UniProt P00439, R408W)
Construct: expressed in transfected cells
Assay method text: Cell Based Phenylalanine Flux Assay
Test conditions: A375 R408W cells; 24 hrs with compound, then 20 μM sepiapterin and 800 μM 13C9,15N-Phenylalanine for 4 hours; 13C-Tyrosine by LC-MS; average where tested multiple times
Parameter AC50: see the listing below.

{"Smi": "Cc1ccc(F)c2nc([C@H]3c4nc[nH]c4CCN3C(=O)c3ocnc3C(F)F)oc12", "Metric": "AC50", "Result": "≤ 0.5 µM"}
{"Smi": "Cc1ccc2oc([C@H]3c4nc[nH]c4CCN3C(=O)c3nnc(-c4ccc(F)cn4)o3)nc2c1", "Metric": "AC50", "Result": "1 to 5 µM"}

Lab note: next compound to report on.
// returns reported AC50 for input "O=C(c1cnn2cc(N3CCC(O)CC3)ccc12)N1CCc2[nH]cnc2[C@H]1c1nc2cccc(F)c2o1"
0.5 to 1 µM

* * *

Target of assay: human PAH with the R408W mutation (A375 R408W cells) (Homo sapiens, UniProt P00439, R408W)
Construct: expressed in transfected cells
Assay method text: Cell Based Phenylalanine Flux Assay
Test conditions: A375 R408W cells; 24 hrs with compound, then 20 μM sepiapterin and 800 μM 13C9,15N-Phenylalanine for 4 hours; 13C-Tyrosine by LC-MS; average where tested multiple times
Parameter AC50: see the listing below.

Past entries and their recorded results:
{"Molecule": "COc1cccc2nc([C@H]3c4nc[nH]c4CCN3C(=O)c3cc(C(F)F)nn3C)oc12 [Example 778]", "AC50": "500 to 1000 nM"}
{"Molecule": "CC(F)(F)c1ncc(C(=O)N2CCc3[nH]cnc3[C@H]2c2nc3cc(F)ccc3o2)s1 [Example 35]", "AC50": "500 to 1000 nM"}
{"Molecule": "Cc1cccc2nc([C@H]3c4nc[nH]c4CCN3C(=O)c3nc(C(F)F)nn3C)oc12 [Example 614]", "AC50": "1000 to 5000 nM"}
{"Molecule": "O=C(c1ocnc1C(F)F)N1CCc2[nH]cnc2[C@H]1c1nc2cc(F)ccc2o1 [Example 51]", "AC50": "≤ 500 nM"}

// returns reported AC50 for input C[C@H](O)c1nc(C(F)F)c(C(=O)N2CCc3[nH]cnc3[C@@H]2c2nc3cccc(F)c3o2)o1 [Example 244]
500 to 1000 nM

* * *

Target of assay: human PAH with the R408W mutation (A375 R408W cells) (Homo sapiens, UniProt P00439, R408W)
Construct: expressed in transfected cells
Assay method text: Cell Based Phenylalanine Flux Assay
Test conditions: A375 R408W cells; 24 hrs with compound, then 20 μM sepiapterin and 800 μM 13C9,15N-Phenylalanine for 4 hours; 13C-Tyrosine by LC-MS; average where tested multiple times
Parameter AC50: see the listing below.

{"Compound": "O=C(c1oc(-c2ncccn2)nc1C(F)F)N1CCc2[nH]cnc2[C@@H]1c1nc2cc(F)ccc2o1 [Example 662]", "AC50": "1 to 5 µM"}

// returns reported AC50 for input CC(C)(O)c1nc(C(F)(F)F)c(C(=O)N2CCc3[nH]cnc3[C@@H]2c2nc3ccc(F)cc3o2)o1 [Example 256]
1 to 5 µM

Same lookup for C[C@@H](O)c1nc(C(F)F)c(C(=O)N2CCc3[nH]cnc3[C@H]2c2nc3c(F)cccc3o2)o1 [Example 229] , please.
≤ 0.5 µM

Same lookup for O=C(c1oc(N2CCOCC2)nc1C(F)F)N1CCc2[nH]cnc2[C@H]1c1nc2cccc(F)c2o1 [Example 648] , please.
≤ 0.5 µM

Same lookup for Cc1ccc2nc([C@@H]3c4nc[nH]c4CCN3C(=O)c3nnc(-c4ccccn4)o3)oc2c1 [Example 101] , please.
0.5 to 1 µM

Same lookup for Cc1ccc(F)c2nc([C@@H]3c4nc[nH]c4CCN3C(=O)c3ocnc3C(F)F)oc12 [Example 743] , please.
≤ 0.5 µM

Same lookup for O=C(c1nnc(-c2ccc(F)c(F)c2)o1)N1CCc2[nH]cnc2[C@@H]1c1nc2cc(F)ccc2o1 [Example 76] , please.
1 to 5 µM

* * *

Target of assay: human PAH with the R408W mutation (A375 R408W cells) (Homo sapiens, UniProt P00439, R408W)
Construct: expressed in transfected cells
Assay method text: Cell Based Phenylalanine Flux Assay
Test conditions: A375 R408W cells; 24 hrs with compound, then 20 μM sepiapterin and 800 μM 13C9,15N-Phenylalanine for 4 hours; 13C-Tyrosine by LC-MS; average where tested multiple times
Metric: AC50

Past entries and their recorded results:
{"Smi": "O=C(c1cnn(CC(F)(F)F)c1C(F)F)N1CCc2[nH]cnc2[C@@H]1c1nc2cc(F)ccc2o1", "AC50": "1000 to 5000 nM"}
{"Smi": "O=C(c1oc(-c2ccncn2)nc1C(F)F)N1CCc2[nH]cnc2[C@H]1c1nc2cc(F)ccc2o1", "AC50": "≤ 500 nM"}
{"Smi": "O=C(c1cnn2cc(N3CCC(F)CC3)ccc12)N1CCc2[nH]cnc2[C@H]1c1nc2c(F)cccc2o1", "AC50": "≤ 500 nM"}
{"Smi": "Cn1ccc(-c2nc(C(F)F)c(C(=O)N3CCc4[nH]cnc4[C@H]3c3nc4cccc(F)c4o3)o2)n1", "AC50": "≤ 500 nM"}
{"Smi": "COc1cccc2nc([C@H]3c4nc[nH]c4CCN3C(=O)c3oc(C(C)(C)O)nc3C(F)F)oc12", "AC50": "1000 to 5000 nM"}

Lab note: next compound to report on.
// returns reported AC50 for input "COc1cccc2oc([C@H]3c4nc[nH]c4CCN3C(=O)c3ncnn3C)nc12"
≥ 5000 nM

* * *

Target of assay: human PAH with the R408W mutation (A375 R408W cells) (Homo sapiens, UniProt P00439, R408W)
Construct: expressed in transfected cells
Sequence (P00439 1-452 R408W): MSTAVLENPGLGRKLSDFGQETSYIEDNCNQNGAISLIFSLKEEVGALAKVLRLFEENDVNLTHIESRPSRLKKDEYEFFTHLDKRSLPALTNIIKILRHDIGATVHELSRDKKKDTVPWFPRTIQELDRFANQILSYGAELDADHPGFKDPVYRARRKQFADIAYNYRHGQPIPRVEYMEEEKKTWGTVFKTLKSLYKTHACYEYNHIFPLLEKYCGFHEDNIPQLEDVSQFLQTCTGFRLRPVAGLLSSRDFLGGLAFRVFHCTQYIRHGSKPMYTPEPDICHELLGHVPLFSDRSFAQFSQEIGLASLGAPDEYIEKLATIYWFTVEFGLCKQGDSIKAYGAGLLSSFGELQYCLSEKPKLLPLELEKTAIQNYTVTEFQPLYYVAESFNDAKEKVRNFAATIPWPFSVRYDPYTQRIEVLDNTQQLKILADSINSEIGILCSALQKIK
Assay method text: Cell Based Phenylalanine Flux Assay
Test conditions: A375 cells expressing R408W PAH; 24 hrs with compound, then 20 μM sepiapterin and 800 μM 13C9,15N-Phenylalanine for 4 hours; 13C-Tyrosine by LC-MS; average where tested multiple times
Parameter AC50: see the listing below.

{"Molecule": "CC(C)(O)C1CCN(c2ccc3c(C(=O)N4CCc5[nH]cnc5C4c4nc5cc(F)ccc5o4)cnn3c2)CC1 (stereo not drawn)", "AC50": "1 to 5 µM"}

// returns reported AC50 for input COCc1nnc(C(=O)N2CCc3[nH]cnc3C2c2nc3cc(F)ccc3o2)o1 (stereo not drawn)
1 to 5 µM

Same lookup for O=C(c1cnn2cc(N3CCS(=O)(=O)CC3)ccc12)N1CCc2[nH]cnc2C1c1nc2cc(F)ccc2o1 (stereo not drawn) , please.
≥ 5 µM

Same lookup for CC1CN(C(=O)c2oc(C(C)(C)O)nc2C(F)F)C(c2nc3cc(F)ccc3o2)c2nc[nH]c21 (stereo not drawn) , please.
1 to 5 µM

* * *

Target of assay: human PAH with the R408W mutation (A375 R408W cells) (Homo sapiens, UniProt P00439, R408W)
Construct: expressed in transfected cells
Assay method text: Cell Based Phenylalanine Flux Assay
Test conditions: A375 R408W cells; 24 hrs with compound, then 20 μM sepiapterin and 800 μM 13C9,15N-Phenylalanine for 4 hours; 13C-Tyrosine by LC-MS; average where tested multiple times
Metric: AC50

Past entries and their recorded results:
{"Molecule": "CN1CCN(c2ccc3c(C(=O)N4CCc5[nH]cnc5[C@H]4c4nc5cc(F)ccc5o4)cnn3c2)CC1(C)C [Example 139]", "Target of assay": "human PAH with the R408W mutation (A375 R408W cells) (Homo sapiens, UniProt P00439, R408W)", "Result": "0.5 to 1 µM"}
{"Molecule": "CC1CN(C(=O)c2ocnc2C(F)F)[C@@H](c2nc3cccc(F)c3o2)c2nc[nH]c21 (single isomer, unassigned) [Example 805]", "Target of assay": "human PAH with the R408W mutation (A375 R408W cells) (Homo sapiens, UniProt P00439, R408W)", "Result": "1 to 5 µM"}
{"Molecule": "O=C(c1oc(COC(F)(F)F)nc1C(F)F)N1CCc2[nH]cnc2[C@H]1c1nc2cc(F)ccc2o1 [Example 115]", "Target of assay": "human PAH with the R408W mutation (A375 R408W cells) (Homo sapiens, UniProt P00439, R408W)", "Result": "0.5 to 1 µM"}
{"Molecule": "O=C(c1cnn2cc(Br)ccc12)N1CCc2[nH]cnc2[C@H]1c1nc2cc(F)ccc2o1 [Example 69]", "Target of assay": "human PAH with the R408W mutation (A375 R408W cells) (Homo sapiens, UniProt P00439, R408W)", "Result": "0.5 to 1 µM"}
{"Molecule": "COCc1ccc2c(C(=O)N3CCc4[nH]cnc4[C@H]3c3nc4cccc(F)c4o3)cnn2c1 [Example 265]", "Target of assay": "human PAH with the R408W mutation (A375 R408W cells) (Homo sapiens, UniProt P00439, R408W)", "Result": "0.5 to 1 µM"}
{"Molecule": "COc1cccc2oc([C@@H]3c4nc[nH]c4CCN3C(=O)c3nc(C)nn3C)nc12 [Example 827]", "Target of assay": "human PAH with the R408W mutation (A375 R408W cells) (Homo sapiens, UniProt P00439, R408W)", "Result": "1 to 5 µM"}
{"Molecule": "Cc1cccc2nc([C@H]3c4nc[nH]c4CCN3C(=O)c3ccnn3C)oc12 [Example 748]", "Target of assay": "human PAH with the R408W mutation (A375 R408W cells) (Homo sapiens, UniProt P00439, R408W)", "Result": "1 to 5 µM"}

Lab note: next molecule to report on.
# query: AC50 | item CC(C)(O)c1nc(Cl)c(C(=O)N2CCc3[nH]cnc3[C@H]2c2nc3cccc(F)c3o2)o1 [Example 272] | system: human PAH with the R408W mutation (A375 R408W cells) (Homo sapiens, UniProt P00439, R408W)
≤ 0.5 µM
